Entries and their clearance values follow.
# assay-info: Pharmacokinetic studies in mice
# Type: in vivo, mouse
# test-parameters: mouse plasma; intravenous 2 mg/kg in 75% PEG 300+25% D5W
measured-metric: clearance (mL/min/kg)

> print(dat)
                    structure.smiles.string  assay.result
1  C=CC(=O)N1CCC(c2nccnc2Oc2ccc(C(F)(F)F)nc2)CC1          47.3
2  C=CC(=O)N1CCN(c2nccnc2Nc2ccc(C(F)(F)F)cn2)CC1          39.5
3  C=CC(=O)N1CCN(c2nccnc2Nc2ccc(C(F)(F)F)cc2)CC1          42.2

----------
# assay-info: Pharmacokinetic studies in mice
# Assay type: in vivo, mouse
# test-parameters: mouse plasma; intravenous 2 mg/kg, oral 10 mg/kg in 75% PEG 300+25% D5W
measured-metric: half-life (min)

> print(dat)
                    structure.smiles.string  assay.result
1  C=CC(=O)N1CCN(c2nccnc2Nc2ccc(C(F)(F)F)cn2)CC1            30
2  C=CC(=O)N1CCN(c2nccnc2Nc2ccc(C(F)(F)F)cc2)CC1           126
3  C=CC(=O)N1CCC(c2nccnc2Oc2ccc(C(F)(F)F)nc2)CC1            24
